// values below are reported EC50
target-under-test: GPR119 receptor (UniProt Q8TDV5, S309L, species not given)
protocol-text: GPR119 signaling, cyclic AMP (cAMP) homogenous time resolved fluorescence (HTRF) assay
stated-conditions: CHO cells with Gα15 and murine GPR119, or HEK293 Flp-In cells with human GPR119 S309L; table does not say which; read-out: Activity: inflection points, denoted as EC50 values (agonist activation of GPR119, cAMP)

Reference set (5 entries):
Fc1cnc(N2CCC(C3CC3CCOc3ccc(-n4ccnn4)cc3)CC2)nc1 (single isomer, unassigned) [Ex 83bS]: < 10 nM
Cc1nnc(-c2ccc(OCCC3CC3C3CCN(c4ncc(Cl)cn4)CC3)cc2F)o1 (single isomer, unassigned) [Ex 83 F]: < 10 nM
Cc1nc(C#N)cc(OC[C@@H]2C[C@H]2CC2CCN(c3ncc(Cl)cn3)CC2)n1 (racemic): 50 to 200 nM
Clc1cnc(N2CCC(C3CC3CCOc3ccncn3)CC2)nc1 (racemic): 50 to 200 nM
Cc1nc(C#N)cc(OCC[C@@H]2C[C@@H]2C2CCN(c3ncc(F)cn3)CC2)n1 (racemic): < 10 nM

## Task Reported EC50, molecule Clc1cnc(N2CCC([C@@H]3C[C@@H]3CCOc3ccc(-n4ccnn4)cc3)CC2)nc1 (single isomer, unassigned) [Ex 83aS] : ____
## Result < 10 nM

====

target-under-test: GPR119 receptor (UniProt Q8TDV5, S309L, species not given)
protocol-text: GPR119 signaling, cyclic AMP (cAMP) homogenous time resolved fluorescence (HTRF) assay
stated-conditions: CHO cells with Gα15 and murine GPR119, or HEK293 Flp-In cells with human GPR119 S309L; table does not say which; read-out: Activity: inflection points, denoted as EC50 values (agonist activation of GPR119, cAMP)
pEC50: −log10 of the molar value.
property-label: pEC50

Solved entries:
N#Cc1ccc(OCC2CC2CC2CCN(c3ncc(Cl)cn3)CC2)c(F)c1 (racemic): 7.30 to 8.00
Cc1nnc(-c2ccc(OC[C@@H]3C[C@H]3CC3CCN(c4ncc(Cl)cn4)CC3)cc2F)o1: 6.70 to 7.30

## Task Param item = "Cc1nnc(-c2ccc(OCC[C@H]3C[C@@H]3C3CCN(c4ncc(Cl)cn4)CC3)cc2F)o1" ; retrieve measured pEC50.
## Result 7.30 to 8.00

## Task Would you kindly repeat that for Cc1cc(OCC[C@@H]2C[C@@H]2C2CCN(c3ncc(Cl)cn3)CC2)nc(C#N)n1 (racemic) ?
## Result > 8.00

## Task What about Clc1cnc(N2CCC(C3CC3CCOc3ccc(-c4nnco4)cc3)CC2)nc1 (racemic) ?
## Result 7.30 to 8.00

## Task Same thing, different compound: N#Cc1cc(OCC[C@@H]2C[C@@H]2C2CCN(c3ncc(Cl)cn3)CC2)ncn1 (racemic)
## Result > 8.00

## Task Also Cc1nnc(-c2ccc(OCCC3CC3C3CCN(c4ncc(Cl)cn4)CC3)cc2)o1 (racemic) , if possible.
## Result > 8.00

====

target-under-test: GPR119 receptor (UniProt Q8TDV5, S309L, species not given)
protocol-text: GPR119 signaling, cyclic AMP (cAMP) homogenous time resolved fluorescence (HTRF) assay
stated-conditions: CHO cells with Gα15 and murine GPR119, or HEK293 Flp-In cells with human GPR119 S309L; table does not say which; read-out: Activity: inflection points, denoted as EC50 values (agonist activation of GPR119, cAMP)
pEC50: −log10 of the molar value.
property-label: pEC50

Look over these answered cases.
Cc1nnn(-c2ccc(OCCC3CC3C3CCN(c4ncc(Cl)cn4)CC3)cc2)n1 (racemic) [Ex 31a]: > 8.00
Cc1cnc(N2CCC([C@H]3C[C@H]3CCOc3cc(C)nc(C)n3)CC2)nc1 (racemic): 7.30 to 8.00
N#Cc1cncc(OCC[C@@H]2C[C@@H]2C2CCN(c3ncc(Cl)cn3)CC2)c1 (racemic): 6.70 to 7.30
Cc1nnc(-c2ccc(OCCC3CC3C3CCN(c4ncc(F)cn4)CC3)cc2F)o1 (single isomer, unassigned) [Ex 83eS]: > 8.00
Cc1nc(C#N)cc(OCC[C@@H]2C[C@@H]2C2CCN(c3ncc(Cl)c(C)n3)CC2)n1 (racemic): > 8.00
Cc1nnc(-c2ccc(OCCC3CC3C3CCN(c4ncc(F)cn4)CC3)cc2F)o1 (single isomer, unassigned) [Ex 83eF]: 6.70 to 7.30

Attention now turns to another entry.
## Task Which measured pEC50 value corresponds to Clc1cnc(N2CCC(C3CC3CCOc3ccc(-n4nccn4)cc3)CC2)nc1 (racemic) ?
## Result 6.70 to 7.30
